Reference source: paper PMC9415509

tested on: SCC25 OSCC cell line; experiment: MTT cell viability assay (cytotoxicity), SCC25; format: cell-based, human; details: IC50 normal oral fibroblasts / IC50 SCC25
READOUT TYPE: SCC25 S.I.

INSERT INTO results (compound, system_under_test, readout_type, assay_result) VALUES
  ('CC(C)=CC[C@@H](O)C1=CC(=O)c2c(O)ccc(O)c2C1=O [Shikonin, shikonin]', 'SCC25 OSCC cell line', 'SCC25 S.I.', 1.0),
  ('CC1(C)CC(=O)C2=C(C1)NC1=C(C(=O)c3ccccc3C1=O)C2c1ccc(Cl)cc1Cl (stereo not shown) [4e]', 'SCC25 OSCC cell line', 'SCC25 S.I.', 4.1),
  ('COc1cccc2c1C(=O)c1c(O)c3c(c(O)c1C2=O)C[C@@](O)(C(=O)CO)C[C@@H]3O[C@H]1C[C@H](N)[C@H](O)[C@H](C)O1 [Doxorubicin, doxorubicin]', 'SCC25 OSCC cell line', 'SCC25 S.I.', 9.7),
  ('N.N.O=C([O-])C1(C(=O)[O-])CCC1.[Pt+2] [Carboplatin, carboplatin]', 'SCC25 OSCC cell line', 'SCC25 S.I.', 3.0),
  ('CC(C)=CCC1=C(O)C(=O)c2ccccc2C1=O [Lapachol, lapachol]', 'SCC25 OSCC cell line', 'SCC25 S.I.', 1.1),
  ('COc1ccc(C2C3=C(CC(C)(C)CC3=O)NC3=C2C(=O)c2ccccc2C3=O)c(OC)c1 (stereo not shown) [4j]', 'SCC25 OSCC cell line', 'SCC25 S.I.', 2.0),
  ('COc1cc(C2C3=C(CC(C)(C)CC3=O)NC3=C2C(=O)c2ccccc2C3=O)cc(OC)c1OC (stereo not shown) [4m]', 'SCC25 OSCC cell line', 'SCC25 S.I.', 1.1);

----------
Attribute: melting point
READOUT TYPE: melting point

INSERT INTO results (compound, assay_result) VALUES
  ('O=C1CCCC2=C1C(c1ccc(Cl)cc1)C1=C(N2)C(=O)c2ccccc2C1=O (stereo not drawn) [5d]', '230 to 231 °C'),
  ('CC1(C)CC(=O)C2=C(C1)NC1=C(C(=O)c3ccccc3C1=O)C2c1ccc(F)cc1 (stereo not drawn) [4f]', '295 to 297 °C'),
  ('CC1(C)CC(=O)C2=C(C1)NC1=C(C(=O)c3ccccc3C1=O)C2c1ccc(Br)cc1 (stereo not drawn) [4h]', '293 to 295 °C'),
  ('COc1cc(C2C3=C(CC(C)(C)CC3=O)NC3=C2C(=O)c2ccccc2C3=O)cc(OC)c1OC (stereo not drawn) [4m]', '242 to 243 °C'),
  ('Cc1ccc(C2C3=C(CCCC3=O)NC3=C2C(=O)c2ccccc2C3=O)c(C)c1 (stereo not drawn) [5i]', '263 to 264 °C'),
  ('O=C1CCCC2=C1C(c1cccc(Cl)c1)C1=C(N2)C(=O)c2ccccc2C1=O (stereo not drawn) [5c]', '217 to 218 °C'),
  ('COc1ccc(OC)c(C2C3=C(CCCC3=O)NC3=C2C(=O)c2ccccc2C3=O)c1 (stereo not drawn) [5k]', '219 to 220 °C'),
  ('COc1ccc(C2C3=C(CCCC3=O)NC3=C2C(=O)c2ccccc2C3=O)cc1OC (stereo not drawn) [5l]', '228 to 230 °C'),
  ('COc1cc(C2C3=C(CCCC3=O)NC3=C2C(=O)c2ccccc2C3=O)cc(OC)c1OC (stereo not drawn) [5m]', '236 to 237 °C');

----------
Assay: Solubility observation during MTT testing
Assay type: physicochemical
Conditions: formed crystals at low concentrations in MTT assay
Protocol: All 26 acridine-core naphthoquinone compounds were submitted to the MTT assay to assess their cytotoxicity. […] These compounds were excluded from further biological experimentation. First, the assay was conducted on the SCC9 OSCC cell line and the results were analyzed by a nonlinear regression curve to determine the value of the half maximal inhibitory concentration (IC50). […] Anticancer activities of these compounds are reported here for the first time.
READOUT TYPE: solubility

INSERT INTO results (compound, assay_result) VALUES
  ('O=C1CCCC2=C1C(c1ccccc1Cl)C1=C(N2)C(=O)c2ccccc2C1=O (stereo not drawn)', 'highly insoluble'),
  ('O=C1CCCC2=C1C(c1ccc(F)cc1)C1=C(N2)C(=O)c2ccccc2C1=O (stereo not drawn)', 'highly insoluble'),
  ('Cc1ccc(C2C3=C(CCCC3=O)NC3=C2C(=O)c2ccccc2C3=O)c(C)c1 (stereo not drawn)', 'highly insoluble'),
  ('CC1(C)CC(=O)C2=C(C1)NC1=C(C(=O)c3ccccc3C1=O)C2c1ccc(F)cc1 (stereo not drawn)', 'highly insoluble'),
  ('CC1(C)CC(=O)C2=C(C1)NC1=C(C(=O)c3ccccc3C1=O)C2c1c(F)c(F)c(F)c(F)c1F (stereo not drawn)', 'highly insoluble'),
  ('CC1(C)CC(=O)C2=C(C1)NC1=C(C(=O)c3ccccc3C1=O)C2c1ccccc1Cl (stereo not drawn)', 'highly insoluble'),
  ('Cc1ccc(C2C3=C(CC(C)(C)CC3=O)NC3=C2C(=O)c2ccccc2C3=O)c(C)c1 (stereo not drawn)', 'highly insoluble'),
  ('O=C1CCCC2=C1C(c1ccccc1)C1=C(N2)C(=O)c2ccccc2C1=O (stereo not drawn)', 'highly insoluble'),
  ('O=C1CCCC2=C1C(c1c(F)c(F)c(F)c(F)c1F)C1=C(N2)C(=O)c2ccccc2C1=O (stereo not drawn)', 'highly insoluble');

----------
system: SCC4 OSCC cell line; assay: MTT cell viability assay (cytotoxicity), SCC4; assay type: cell-based, human; conditions: Homo sapiens, SCC-4; SCC4, 48 h, MTT; read-out: Oral Tumor Cells SCC4 IC50
pIC50: −log10 of the molar value.
Mark label 0 for pIC50 values under 5, and label 1 for everything at or above.

INSERT INTO results (compound, assigned_category) VALUES
  ('CC1(C)CC(=O)C2=C(C1)NC1=C(C(=O)c3ccccc3C1=O)C2c1ccc(Cl)cc1Cl (centres unmarked)', 'label 0'),
  ('CC(C)=CCC1=C(O)C(=O)c2ccccc2C1=O', 'label 0'),
  ('COc1ccc(C2C3=C(CC(C)(C)CC3=O)NC3=C2C(=O)c2ccccc2C3=O)c(OC)c1 (centres unmarked)', 'label 0'),
  ('COc1cccc2c1C(=O)c1c(O)c3c(c(O)c1C2=O)C[C@@](O)(C(=O)CO)C[C@@H]3O[C@H]1C[C@H](N)[C@H](O)[C@H](C)O1', 'label 1');

----------
test: Hemolysis assay; type: cell-based; conditions: human, human erythrocytes, relative to triton x-100 = 100% lysis
READOUT TYPE: hemolysis at 300 µM

INSERT INTO results (compound, assay_result) VALUES
  ('CC1(C)CC(=O)C2=C(C1)NC1=C(C(=O)c3ccccc3C1=O)C2c1ccc(Cl)cc1Cl (stereo not shown)', '< 3%');

----------
Reported melting point values for the following molecules.
READOUT TYPE: melting point

INSERT INTO results (molecule, assay_result) VALUES
  ('CC1(C)CC(=O)C2=C(C1)NC1=C(C(=O)c3ccccc3C1=O)C2c1c(F)c(F)c(F)c(F)c1F (centres unmarked)', '260 to 261 °C'),
  ('CC1(C)CC(=O)C2=C(C1)NC1=C(C(=O)c3ccccc3C1=O)C2c1cccc(Cl)c1 (centres unmarked)', '249 to 251 °C'),
  ('CC1(C)CC(=O)C2=C(C1)NC1=C(C(=O)c3ccccc3C1=O)C2c1ccc(Cl)cc1 (centres unmarked)', '287 to 288 °C'),
  ('O=C1CCCC2=C1C(c1ccccc1)C1=C(N2)C(=O)c2ccccc2C1=O (centres unmarked)', '287 to 288 °C'),
  ('O=C1CCCC2=C1C(c1ccc(F)cc1)C1=C(N2)C(=O)c2ccccc2C1=O (centres unmarked)', '255 to 256 °C'),
  ('COc1ccc(C2C3=C(CC(C)(C)CC3=O)NC3=C2C(=O)c2ccccc2C3=O)c(OC)c1 (centres unmarked)', '250 to 251 °C'),
  ('O=C1CCCC2=C1C(c1ccc(Br)cc1)C1=C(N2)C(=O)c2ccccc2C1=O (centres unmarked)', '257 to 258 °C'),
  ('COc1ccc(C2C3=C(CC(C)(C)CC3=O)NC3=C2C(=O)c2ccccc2C3=O)cc1OC (centres unmarked)', '238 to 239 °C');

----------
Recorded SCC9 S.I. values for a group of molecules are listed next.
system: SCC9 (OSCC cell); test: MTT cell viability assay (cytotoxicity), SCC9; format: cell-based, human; settings: IC50 normal oral fibroblasts / IC50 SCC9
READOUT TYPE: SCC9 S.I.

INSERT INTO assay_data (molecule, readout_type, assay_result) VALUES
  ('N.N.O=C([O-])C1(C(=O)[O-])CCC1.[Pt+2]', 'SCC9 S.I.', 2.2),
  ('COc1ccc(C2C3=C(CC(C)(C)CC3=O)NC3=C2C(=O)c2ccccc2C3=O)c(OC)c1 (stereo not shown)', 'SCC9 S.I.', 5.7),
  ('CC1(C)CC(=O)C2=C(C1)NC1=C(C(=O)c3ccccc3C1=O)C2c1ccc(Cl)cc1Cl (stereo not shown)', 'SCC9 S.I.', 6.0),
  ('COc1cc(C2C3=C(CC(C)(C)CC3=O)NC3=C2C(=O)c2ccccc2C3=O)cc(OC)c1OC (stereo not shown)', 'SCC9 S.I.', 3.8),
  ('CC(C)=CC[C@@H](O)C1=CC(=O)c2c(O)ccc(O)c2C1=O', 'SCC9 S.I.', 2.0),
  ('CC(C)=CCC1=C(O)C(=O)c2ccccc2C1=O', 'SCC9 S.I.', 1.8),
  ('COc1cccc2c1C(=O)c1c(O)c3c(c(O)c1C2=O)C[C@@](O)(C(=O)CO)C[C@@H]3O[C@H]1C[C@H](N)[C@H](O)[C@H](C)O1', 'SCC9 S.I.', 1.6);
